test: Hematic levels of UDCA and glyco UDCA after oral administration of 200 mg UDCA aqueous solution to three healthy men (Example VI); type: in vivo, human; details: male, human, plasma, po, 200 mg, oral, 200 mg UDCA solution of this invention; read-out: AUC, individual men #1-#3
property label: AUC (ng·h/mL)

>>> numeric_readout("C[C@H](CCC(=O)O)[C@H]1CC[C@H]2[C@@H]3[C@@H](O)C[C@@H]4C[C@H](O)CC[C@]4(C)[C@H]3CC[C@]12C")
4320

---

Experiment: Hematic levels of UDCA and glyco UDCA after oral administration of 200 mg UDCA aqueous solution to three healthy men (Example VI)
Type: in vivo, human
Conditions: male, human, plasma, po, 200 mg, oral, 200 mg UDCA solution of this invention, 3 h; read-out: Plasma concentration, individual men #1-#3
Description: The aqueous solution dosage forms, according to this invention, containing 200 mg of ursodeoxycholic acid (UDCA), were prepared according to the method described in the above-described Example III and were administered to three healthy men having normal body weight after fasting. The hematic levels of UDCA and glyco UDCA were evaluated by means of well known chemical methods. […]
property label: concentration at 3 h (ng/mL)

>>> numeric_readout("C[C@H](CCC(=O)O)[C@H]1CC[C@H]2[C@@H]3[C@@H](O)C[C@@H]4C[C@H](O)CC[C@]4(C)[C@H]3CC[C@]12C [UDCA]")
124
